- measurement.notes: Solubility in sodium phosphate buffer at 0.1 M pH 7.4 at 25 degC
- Assay type: physicochemical
quantity.measured: solubility (µg/mL)

a = CC(=O)N1CCN(CCCOc2ccccc2NC(=O)NC23CC4CC(CC(C4)C2)C3)CC1
b = CC(C)(C)OC(=O)N1CCN(CCCOc2cccc(NC(=O)NC34CC5CC(CC(C5)C3)C4)c2)CC1
c = O=C(Nc1cccc(OCCCN2CCNCC2)c1)NC12CC3CC(CC(C3)C1)C2
In: Task for the reader: place the compounds above in descending order according to recorded solubility. // rank by listing labels in the order requested
Out: a, c, b

a = CC(C)(C)OC(=O)N1CCN(CCCCOc2cccc(NC(=O)NC34CC5CC(CC(C5)C3)C4)c2)CC1
b = CC(=O)N1CCN(CCCCOc2cccc(NC(=O)NC34CC5CC(CC(C5)C3)C4)c2)CC1
In: Choose between a and b : whose measured solubility value is numerically larger? // caller expects the label of the chosen entry
Out: a
